assay: Clearance in cynomolgus monkey at 1 mg/kg, iv; assay type: ADME, organism-based, Macaca fascicularis; parameters: dose 1 mg/kg, route intravenous; conditions: in vivo

| Compound smiles | Unit info | clearance |
| --- | --- | --- |
| N#Cc1cc(Cl)cc(Oc2c(Br)ccc(CNC(=O)c3[nH]c(N)nc3Cl)c2F)c1 | mL/min/kg | 4.7 |

====

assay: Oral bioavailability in mouse at 5 mg/kg; assay type: ADME, organism-based; settings: in vivo

| Compound smiles | bioavailability [%] |
| --- | --- |
| N#Cc1cc(Cl)cc(Oc2c(Br)ccc(CNC(=O)c3[nH]c(N)nc3Cl)c2F)c1 | 94 |
